Sourced from patent US9862707B2

target: human TrkA receptor (Homo sapiens (Human), UniProt P04629); assay: TrkA functional activity, DiscoverX PathHunter assay; conditions: U2OS cells expressing human TrkA-PK, Shc1-EA and p75NTR; compound 1 h, then NGF at ~80% of maximal response for 3 h; luminescence
Sequence (P04629 33-796): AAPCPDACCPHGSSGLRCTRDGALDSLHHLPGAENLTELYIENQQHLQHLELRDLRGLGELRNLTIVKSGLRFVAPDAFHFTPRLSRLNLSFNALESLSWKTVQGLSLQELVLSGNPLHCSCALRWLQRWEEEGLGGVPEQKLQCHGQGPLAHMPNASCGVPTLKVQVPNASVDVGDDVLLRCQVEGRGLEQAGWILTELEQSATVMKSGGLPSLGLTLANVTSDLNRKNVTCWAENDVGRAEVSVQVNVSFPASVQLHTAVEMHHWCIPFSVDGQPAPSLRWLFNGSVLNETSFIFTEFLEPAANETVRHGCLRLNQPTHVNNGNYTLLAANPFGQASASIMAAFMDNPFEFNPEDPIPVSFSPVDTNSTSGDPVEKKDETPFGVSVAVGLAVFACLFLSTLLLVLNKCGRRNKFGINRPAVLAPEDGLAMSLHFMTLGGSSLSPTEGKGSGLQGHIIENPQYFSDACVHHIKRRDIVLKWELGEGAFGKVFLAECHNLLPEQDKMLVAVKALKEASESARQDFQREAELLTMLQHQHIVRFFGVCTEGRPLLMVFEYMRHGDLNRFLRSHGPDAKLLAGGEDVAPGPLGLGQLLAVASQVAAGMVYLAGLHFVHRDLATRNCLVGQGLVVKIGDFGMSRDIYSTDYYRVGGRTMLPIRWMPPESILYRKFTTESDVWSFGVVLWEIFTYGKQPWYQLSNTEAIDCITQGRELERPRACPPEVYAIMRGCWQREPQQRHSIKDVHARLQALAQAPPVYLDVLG
The entries below are paired with their reported IC50.
Report only the number, with the unit nM understood.

- query_smiles: "NC(=O)c1cnc2c(NC(=O)c3cc(-c4ncccn4)c(C(F)(F)F)cc3F)n(-c3ccccc3)nc2c1"
  measured_number: 7.2
- query_smiles: "CC(C)(O)c1cnc2nn(-c3ccccc3)c(NC(=O)c3cc(-c4ncccn4)c(C(F)(F)F)cc3F)c2c1"
  measured_number: 12
- query_smiles: "Cc1ccccc1-n1nc2cc(C(N)=O)ccc2c1NC(=O)c1cc(-c2ccn(C)n2)c(C(F)(F)F)cc1F"
  measured_number: 1.3

We next turn to a different molecule, shown below.
input: Given the entry CC(C)(O)c1cnc2c(NC(=O)c3cc(-c4ncccn4)c(C(F)(F)F)cc3F)n(-c3ccccc3)nc2c1 , report its measured IC50.
output: 3.9

###

molecular target: human TrkA receptor (Homo sapiens (Human), UniProt P04629); assay: TrkA functional activity, DiscoverX PathHunter assay; settings: U2OS cells expressing human TrkA-PK, Shc1-EA and p75NTR; compound 1 h, then NGF at ~80% of maximal response for 3 h; luminescence
The entries below are paired with their reported pIC50.
Please report pIC50 as the negative decimal logarithm of the molar concentration, giving only the number.

- compound: "Cn1ccc(-c2cc(C(=O)Nc3c4ccc(C(N)=O)cc4nn3-c3ccccc3)c(F)cc2C(F)(F)F)n1 [Compound 74]"
  test_readout: "pIC50"
  measured_number: 9.24
- compound: "O=C(Nc1c2cc(C(O)C(F)(F)F)ccc2nn1-c1ccccc1)c1cc(-c2ncccn2)c(C(F)(F)F)cc1F (single isomer, unassigned; isomer a) [Compound 54]"
  test_readout: "pIC50"
  measured_number: 7.64
- compound: "Cn1ccc(-c2cc(C(=O)Nc3c4cc(C(F)(F)F)ccc4nn3-c3ccccc3)c(F)cc2C(F)(F)F)n1 [Compound 7]"
  test_readout: "pIC50"
  measured_number: 7.54
- compound: "O=C(CO)NCc1ccc2c(NC(=O)c3cc(-c4ncccn4)c(C(F)(F)F)cc3F)n(-c3ccccc3)nc2c1 [Compound 98]"
  test_readout: "pIC50"
  measured_number: 7.96
- compound: "O=C(Nc1c2ccc(C3CCCN3)cc2nn1-c1ccccc1)c1cc(-c2ncccn2)c(C(F)(F)F)cc1F (single isomer, unassigned) [Compound 103]"
  test_readout: "pIC50"
  measured_number: 7.54

input: Given the entry Cn1ccc(-c2cc(C(=O)Nc3c4ncc(C(C)(C)O)cc4nn3-c3ccccc3)c(F)cc2C(F)(F)F)n1 [Compound 41] , report its measured pIC50.
output: 9.80

input: Given the entry O=C(Nc1c2ccc(C3CCCN3)cc2nn1-c1ccccc1)c1cc(-c2ncccn2)c(C(F)(F)F)cc1F (single isomer, unassigned) [Compound 102] , report its measured pIC50.
output: 7.54

input: Given the entry CC(O)c1cnc2c(NC(=O)c3cc(-c4ccn(C)n4)c(C(F)(F)F)cc3F)n(-c3ccccc3)nc2c1 (single isomer, unassigned; isomer a) [Compound 33] , report its measured pIC50.
output: 9.60

input: Given the entry Cn1ccc(-c2cc(C(=O)Nc3c4cc(CO)ccc4nn3-c3ccccc3)ccc2C(F)(F)F)n1 [Compound 10] , report its measured pIC50.
output: 9.08

input: Given the entry CN(C)Cc1ccc2nn(-c3ccccc3)c(NC(=O)c3ccc(C(F)(F)F)c(-c4ccn(C)n4)c3)c2c1 [Compound 68] , report its measured pIC50.
output: 7.68

input: Given the entry CC(N)c1ccc2c(NC(=O)c3cc(-c4ncccn4)c(C(F)(F)F)cc3F)n(-c3ccccc3)nc2c1 (single isomer, unassigned) [Compound 70] , report its measured pIC50.
output: 7.85

input: Given the entry NC(=O)c1cnc2c(NC(=O)c3cc(-c4ccccn4)c(C(F)(F)F)cc3F)n(-c3ccccc3)nc2c1 [Compound 84] , report its measured pIC50.
output: 8.59

input: Given the entry Cn1ccc(-c2cc(C(=O)Nc3c4ccc([C@@H](N)C(F)(F)F)cc4nn3-c3ccccc3)ccc2C(F)(F)F)n1 [Compound 100] , report its measured pIC50.
output: 8.57

input: Given the entry CC(O)c1ccc2nn(-c3ccccc3)c(NC(=O)c3cc(-c4cc[nH]n4)c(C(F)(F)F)cc3F)c2n1 (single isomer, unassigned; isomer b) [Compound 32] , report its measured pIC50.
output: 8.29

input: Given the entry CC(O)c1cnc2c(NC(=O)c3cc(-c4ncccn4)c(C(F)(F)F)cc3F)n(-c3ccccc3)nc2c1 (single isomer, unassigned; isomer a) [Compound 29] , report its measured pIC50.
output: 8.74

input: Given the entry Cn1ccc(-c2cc(C(=O)Nc3c4cccc(CC(N)=O)c4nn3-c3ccccc3)c(F)cc2C(F)(F)F)n1 [Compound 95] , report its measured pIC50.
output: 9.19

input: Given the entry COc1ccc2nn(-c3ccccc3)c(NC(=O)c3cc(-c4ncccn4)c(C(F)(F)F)cc3F)c2n1 [Compound 8] , report its measured pIC50.
output: 7.74

input: Given the entry O=C(Nc1c2ccc(C(O)C(F)F)cc2nn1-c1ccccc1)c1cc(-c2ncccn2)c(C(F)(F)F)cc1F (single isomer, unassigned; isomer b) [Compound 57] , report its measured pIC50.
output: 7.89

input: Given the entry NCc1cnc2c(NC(=O)c3cc(-c4ncccn4)c(C(F)(F)F)cc3F)n(-c3ccccc3)nc2c1 [Compound 66] , report its measured pIC50.
output: 7.15

input: Given the entry Cc1ccccc1-n1nc2cc(C(N)=O)cnc2c1NC(=O)c1cc(-c2ncccn2)c(C(F)(F)F)cc1F [Compound 91] , report its measured pIC50.
output: 7.28

input: Given the entry O=C(Nc1c2cc(CO)ncc2nn1-c1ccccc1)c1cc(-c2ncccn2)c(C(F)(F)F)cc1F [Compound 11] , report its measured pIC50.
output: 7.70

input: Given the entry NC(=O)c1ccc2nn(-c3ccccc3)c(NC(=O)c3cc(-c4ncccn4)c(C(F)(F)F)cc3F)c2n1 [Compound 80] , report its measured pIC50.
output: 7.49

input: Given the entry CC(O)c1cnc2c(NC(=O)c3cc(-c4ncccn4)c(C(F)(F)F)cc3F)n(-c3ccccc3)nc2c1 (single isomer, unassigned; isomer b) [Compound 30] , report its measured pIC50.
output: 8.96

input: Given the entry NC(=O)c1ccc2c(NC(=O)c3cc(-c4ccccn4)c(C(F)(F)F)cc3Cl)n(-c3ccccc3)nc2c1 [Compound 83] , report its measured pIC50.
output: 8.21

input: Given the entry Cn1ccc(-c2cc(C(=O)Nc3c4ccc(CNCCO)cc4nn3-c3ccccc3)c(F)cc2C(F)(F)F)n1 [Compound 72] , report its measured pIC50.
output: 8.19

input: Given the entry Cn1ccc(-c2cc(C(=O)Nc3c4ncc(C(C)(C)O)cc4nn3-c3ccccc3)ccc2C(F)(F)F)n1 [Compound 48] , report its measured pIC50.
output: 8.28

###

molecular target: human TrkA receptor (Homo sapiens (Human)); test: TrkA functional activity, DiscoverX PathHunter assay; details: U2OS cells expressing human TrkA-PK, Shc1-EA and p75NTR; compound 1 h, then NGF at ~80% of maximal response for 3 h; luminescence
test_readout: IC50 (nM)
Report only the number, with the unit nM understood.

Answered cases to consult:
- molecule: "NC(=O)c1cc2nn(-c3ccccc3)c(NC(=O)c3cc(-c4ncccn4)c(C(F)(F)F)cc3F)c2cn1"
  value_unit: "nM"
  IC50: 36
- molecule: "CC(O)c1ccc2c(NC(=O)c3cc(-c4ncccn4)c(C(F)(F)F)cc3F)n(-c3ccccc3)nc2c1 (single isomer, unassigned) [Compound 19]"
  value_unit: "nM"
  IC50: 1.9
- molecule: "NC(=O)c1ccc2c(NC(=O)c3cc(-c4ccccn4)c(C(F)(F)F)cc3F)n(-c3ccccc3)nc2c1"
  value_unit: "nM"
  IC50: 2.9

input: Could you share what IC50 was measured for CC(O)c1cnc2c(NC(=O)c3cc(-c4ncccn4)c(C(F)(F)F)cc3Cl)n(-c3ccccc3)nc2c1 (single isomer, unassigned; isomer a) [Compound 35] , tested on human TrkA receptor (Homo sapiens (Human))?
output: 1.7

input: Could you share what IC50 was measured for Cn1ccc(-c2cc(C(=O)Nc3c4nccc(CN5C(=O)CNC5=O)c4nn3-c3ccccc3)c(F)cc2C(F)(F)F)n1 , tested on human TrkA receptor (Homo sapiens (Human))?
output: 0.88

input: Could you share what IC50 was measured for CC(=O)NCc1cccc(-n2nc3cccnc3c2NC(=O)c2cc(-c3ncccn3)c(C(F)(F)F)cc2F)c1 , tested on human TrkA receptor (Homo sapiens (Human))?
output: 744

###

molecular target: human TrkA receptor (Homo sapiens (Human), UniProt P04629); assay: TrkA functional activity, DiscoverX PathHunter assay; conditions: U2OS cells expressing human TrkA-PK, Shc1-EA and p75NTR; compound 1 h, then NGF at ~80% of maximal response for 3 h; luminescence
pIC50: −log10 of the molar value.
Output Satisfied for pIC50 not less than 8; output Not satisfied otherwise.

- molecule: "Cn1ccc(-c2cc(C(=O)Nc3c4ccc(CN)cc4nn3-c3ccccc3)c(F)cc2C(F)(F)F)n1 [Compound 71]"
  class_name: "Satisfied"
- molecule: "Cc1cc(-n2nc3ccc(CO)cc3c2NC(=O)c2cc(-c3ncccn3)c(C(F)(F)F)cc2F)n[nH]1 [Compound 15]"
  class_name: "Not satisfied"
- molecule: "Cc1ccccc1-n1nc2cc(C(N)=O)ccc2c1NC(=O)c1cc(-c2ncccn2)c(C(F)(F)F)cc1F [Compound 93]"
  class_name: "Not satisfied"
- molecule: "O=C(Nc1c2nc(CO)ccc2nn1-c1ccccc1)c1cc(-c2ncccn2)c(C(F)(F)F)cc1Cl [Compound 17]"
  class_name: "Not satisfied"
- molecule: "O=C(Nc1c2ncccc2nn1-c1ccccc1)c1cc(-c2ncccn2)c(C(F)(F)F)cc1F [Compound 1]"
  class_name: "Satisfied"

Could you now look at the following molecule, please?
input: Please indicate if the recorded pIC50 for NC(=O)c1ccc2c(NC(=O)c3cc(-c4ncccn4)c(C(F)(F)F)cc3F)n(-c3ccccc3)nc2c1 [Compound 73] meets or exceeds 8.
output: Satisfied
